- System: NCI/ADR-RES ovarian
- TEST_DETAILS: NCI-60 one-dose screen, 48 h
- PARTICULARS: 10 µM
- Description: Growth inhibition of the NCI/ADR-RES human […] tumor cell line is measured as a screen for anti-cancer activity. Cells are grown in 96 well plates and exposed to the test compound for 48 hours. Compounds are tested at a single concentration, which is 10^-5 M for most compounds. The reported endpoint is percent growth (GI% or GIPRCNT), where numbers from 0 - 100% represent growth inhibition, and numbers from -100% - 0 represent cell death. For example, a value of 40 represents 60% growth inhibition. […]
Compounds without any hit were thinned out: in the full panel of roughly 83,000, 20% have a hit. The source made the active and inactive calls. How the source made its calls: active means growth percent below 10; inactive means the rest.
Classes used: active, inactive

{"columns": ["MOLECULE", "LABEL"],
 "data": [
  ["Cc1cs/c(=N\\NC(=O)c2cc(-c3cc4ccccc4o3)nn2-c2ccccc2)n1-c1ccccc1", "inactive"],
  ["CSCCCNC(=O)c1ccc2c(c1)/C(=C/c1[nH]c(C)cc1C)C(=O)N2", "inactive"],
  ["COc1ccc(-c2csc(NC(=O)CSc3nc(C)c(-c4ccccc4)n3Nc3ccccc3)n2)cc1", "inactive"],
  ["Clc1ccc(Sc2nc(NC3CC3)nc(Sc3ccc(Cl)cc3)n2)cc1", "inactive"],
  ["CCCCCCCCCCCCCCCCCCOCC(COCCOCC[N+]1(CCCCCC(=O)[O-])CCCC1)Oc1ncccn1 (configuration not stated)", "inactive"],
  ["N=C(N)c1ccc(-c2ccc(-c3ccccc3)o2)nc1", "inactive"],
  ["Cn1c(C(N)=O)cc2c1-c1nc(Nc3ccccc3)ncc1CCC2", "inactive"],
  ["COc1ccc(-c2cc(-c3ccc(N(C)C)cc3)c(C#N)c(N3CCCC3)n2)cc1", "inactive"],
  ["COc1ccc2c(c1)N(CCO)C1=C(C(=O)OC1)C2c1cc(OC)c(OC)c(OC)c1 (configuration not stated)", "active"],
  ["Clc1cc2c(c(CSc3nc4ccccc4n4cccc34)c1)OCOC2", "inactive"],
  ["c1ccc2c(c1)oc1c3cccnc3ccc21", "inactive"],
  ["COc1cccc(C(=O)Nc2ccc(CN3CCc4nc5cc(OC)c(OC)cc5cc43)cc2)c1", "inactive"],
  ["O=c1[nH]c(-c2ccc(Cl)cc2)nc2sc3c(c12)CCCC3", "inactive"],
  ["COc1ccc(-c2nc3sc(C4CC4)nn3c2/C=C2/C(=O)Nc3ccc(OC)cc32)cc1", "inactive"],
  ["Cc1ccc(-c2nc(/C=C3/C(=O)N(C)c4ccc(F)cc43)c3ccccn23)cc1", "inactive"],
  ["S=c1[nH]ccn1-c1c(Cl)cccc1Cl", "inactive"],
  ["O=C(C[n+]1ccccc1)c1ccc2ccccc2c1", "inactive"],
  ["CN(C)CCCn1c(=O)c2ccccc2c2cnc3[nH]ccc3c21", "inactive"],
  ["CCOCC(=O)C(C#N)c1ccc(Cl)c(Cl)c1 (configuration not stated)", "inactive"],
  ["Nc1ccc2c(c1)Cc1cc(N)c(Br)cc1-2", "inactive"],
  ["Fc1cc(C(F)(F)F)ccc1-c1cncnc1NC1CCCCCC1", "inactive"],
  ["COc1ccccc1/C=C/C(=O)c1ccccc1", "inactive"],
  ["O=C(Nc1nc(-c2ccccc2Cl)cs1)c1cc(-c2ccc(Cl)cc2)nc2ccc(Cl)cc12", "active"],
  ["Clc1ccc2c(NCCCNc3nccc(Nc4ccc(Br)cc4)n3)ccnc2c1", "active"],
  ["CC1CC(=O)OC(C)C1 (configuration not stated)", "inactive"],
  ["COc1cc(/C=C\\c2cc(OC)c(OC)c(OC)c2)cc(NS(=O)(=O)c2ccc(Cl)cc2)c1OC", "inactive"],
  ["O=C(Nc1ccncc1)C(=O)c1cn(S(=O)(=O)c2cc(Cl)cc(Cl)c2)c2ccccc12", "inactive"],
  ["NC1=NC(=O)C(c2ccccc2)(c2ccccc2)S1", "inactive"],
  ["O=C1N=NC2=C1c1c3ccccc3c(O)n1CC2", "inactive"],
  ["N#CC1=C(Nc2ccccc2Cl)SC(c2ccccc2O)NC1=O (configuration not stated)", "inactive"],
  ["O=C(Nc1cccc(-n2cc(-c3ccncc3)c(-c3ccc(O)c(Cl)c3)n2)c1)c1cccc(C(F)(F)F)c1", "inactive"],
  ["Fc1ccc(-c2nnc(-c3c(-c4ccc(F)cc4)nc4ccccn34)o2)cc1", "inactive"],
  ["CC1(C)OC2=C(CC1Br)C(=O)C(=O)c1ccccc12 (configuration not stated)", "active"],
  ["Cc1cc(N(CCCNc2ccnc3cc(Cl)ccc23)Cc2ccc3c(c2)OCO3)nc(N2CCCCC2)n1", "active"],
  ["COc1ccc(/C=C/C(=O)Nc2ccc(-c3nc4ccc(OC)cc4s3)cc2)cc1", "inactive"],
  ["COc1cc(Cl)cc(-c2nn(-c3cccc(NC(=O)Nc4ccc(Cl)c(Cl)c4)c3)cc2-c2ccncc2)c1", "active"],
  ["CC(C)=CCc1cc(O)cc2c1OC(C=C(C)C)C1=C2C(=O)C2=C(NCCS2(=O)=O)C1=O (configuration not stated)", "inactive"],
  ["CN1CCC2(CC1)NC(=O)c1c(c3ccc(Cl)c(Cl)c3n1C)C2C#N (configuration not stated)", "inactive"],
  ["O=C1/C(=C\\c2ccc(F)cc2)CN(C(=O)c2ccc([N+](=O)[O-])cc2)C/C1=C\\c1ccc(F)cc1", "inactive"],
  ["CCOCCOCCOCCOCCOCCOCCOCCOCCOCCO (tested in a mixture with another compound)", "inactive"],
  ["C/C(=N\\Nc1nc2ccccc2s1)c1ccncn1", "inactive"],
  ["O=C1C(c2ccccc2)C2C=CC(C2)N1O (configuration not stated)", "inactive"]
]}
